- TARGET_ENTITY: T-type calcium channel (Homo sapiens, UniProt O43497)
- Sequence (O43497 whole entry): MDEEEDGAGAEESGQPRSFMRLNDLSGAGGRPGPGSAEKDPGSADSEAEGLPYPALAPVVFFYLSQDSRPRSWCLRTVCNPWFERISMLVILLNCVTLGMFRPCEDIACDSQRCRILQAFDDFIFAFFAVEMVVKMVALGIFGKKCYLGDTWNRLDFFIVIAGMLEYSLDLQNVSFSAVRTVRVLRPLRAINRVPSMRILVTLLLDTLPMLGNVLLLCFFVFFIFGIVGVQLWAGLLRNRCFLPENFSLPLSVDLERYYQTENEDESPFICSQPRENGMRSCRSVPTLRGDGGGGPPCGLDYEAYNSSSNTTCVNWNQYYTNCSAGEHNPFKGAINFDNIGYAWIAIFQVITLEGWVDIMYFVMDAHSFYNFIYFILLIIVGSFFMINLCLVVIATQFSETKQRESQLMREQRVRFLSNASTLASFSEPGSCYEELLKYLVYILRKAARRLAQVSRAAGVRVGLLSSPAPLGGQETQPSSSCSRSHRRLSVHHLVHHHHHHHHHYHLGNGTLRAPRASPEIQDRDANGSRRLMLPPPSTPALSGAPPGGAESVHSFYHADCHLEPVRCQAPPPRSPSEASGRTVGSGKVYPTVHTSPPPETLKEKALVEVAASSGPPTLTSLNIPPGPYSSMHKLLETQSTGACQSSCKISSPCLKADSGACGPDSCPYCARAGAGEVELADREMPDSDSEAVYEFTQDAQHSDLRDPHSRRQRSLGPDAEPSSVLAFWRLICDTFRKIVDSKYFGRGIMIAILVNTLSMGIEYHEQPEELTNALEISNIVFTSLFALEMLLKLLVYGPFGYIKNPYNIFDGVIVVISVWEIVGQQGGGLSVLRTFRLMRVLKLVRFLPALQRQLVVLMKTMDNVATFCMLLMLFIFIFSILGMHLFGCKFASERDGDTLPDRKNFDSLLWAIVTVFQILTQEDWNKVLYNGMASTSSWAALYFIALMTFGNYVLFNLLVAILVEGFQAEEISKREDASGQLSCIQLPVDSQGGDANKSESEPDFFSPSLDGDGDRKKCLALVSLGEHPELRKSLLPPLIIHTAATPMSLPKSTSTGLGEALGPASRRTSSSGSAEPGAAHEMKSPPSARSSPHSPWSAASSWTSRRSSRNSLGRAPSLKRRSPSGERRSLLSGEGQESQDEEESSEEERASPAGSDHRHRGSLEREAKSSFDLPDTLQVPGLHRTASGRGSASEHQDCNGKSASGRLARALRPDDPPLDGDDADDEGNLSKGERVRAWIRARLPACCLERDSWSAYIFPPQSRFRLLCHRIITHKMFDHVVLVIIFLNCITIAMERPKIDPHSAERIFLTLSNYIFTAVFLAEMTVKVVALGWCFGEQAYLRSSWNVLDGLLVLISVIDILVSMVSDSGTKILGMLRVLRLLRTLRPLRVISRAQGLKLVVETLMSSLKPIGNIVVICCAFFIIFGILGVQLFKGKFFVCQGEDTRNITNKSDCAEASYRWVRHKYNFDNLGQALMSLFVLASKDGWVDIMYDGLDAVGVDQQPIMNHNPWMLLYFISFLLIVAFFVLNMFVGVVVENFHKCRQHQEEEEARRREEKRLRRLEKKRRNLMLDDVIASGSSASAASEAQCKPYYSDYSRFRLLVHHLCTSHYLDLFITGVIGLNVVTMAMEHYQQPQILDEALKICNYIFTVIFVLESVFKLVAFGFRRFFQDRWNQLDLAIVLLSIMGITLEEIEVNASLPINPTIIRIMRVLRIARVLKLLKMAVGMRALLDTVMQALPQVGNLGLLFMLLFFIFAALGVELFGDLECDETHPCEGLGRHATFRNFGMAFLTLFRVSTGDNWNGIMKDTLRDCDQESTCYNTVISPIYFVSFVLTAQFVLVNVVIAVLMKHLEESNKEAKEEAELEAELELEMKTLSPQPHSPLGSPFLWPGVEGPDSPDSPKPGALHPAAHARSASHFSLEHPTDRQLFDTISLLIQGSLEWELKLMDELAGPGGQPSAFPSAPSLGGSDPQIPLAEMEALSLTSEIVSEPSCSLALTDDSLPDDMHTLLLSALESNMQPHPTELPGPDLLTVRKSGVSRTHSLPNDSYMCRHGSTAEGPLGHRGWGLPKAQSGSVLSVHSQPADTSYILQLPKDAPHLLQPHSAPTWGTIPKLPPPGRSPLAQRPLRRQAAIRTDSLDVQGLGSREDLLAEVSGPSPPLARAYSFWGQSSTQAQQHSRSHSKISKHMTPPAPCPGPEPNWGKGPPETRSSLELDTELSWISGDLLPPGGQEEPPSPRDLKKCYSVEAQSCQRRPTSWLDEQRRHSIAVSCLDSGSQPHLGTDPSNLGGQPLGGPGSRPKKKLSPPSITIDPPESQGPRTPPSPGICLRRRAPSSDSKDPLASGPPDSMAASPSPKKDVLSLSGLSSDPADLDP
- EXPERIMENT_NOTES: T-type channel blocking, FLIPR data (Table 6)
- CONDITION: CAv3.1
PROPERTY_LABEL: IC50 (µM)

| MOLECULE | MEASURED |
| --- | --- |
| CC(C)([C@H]1C[C@@H](NS(=O)(=O)c2ccc(F)c(Cl)c2)C1)S(=O)(=O)c1cccc(C(F)(F)F)c1 [Compound 625] | 3.74 |
| CC(C)([C@H]1C[C@H](NS(=O)(=O)c2ccc(C(F)(F)F)nc2)C1)S(=O)(=O)c1cc(F)cc(C(F)(F)F)c1 [Compound 609] | 9.91 |
| CC(C)([C@H]1C[C@H](NS(=O)(=O)c2ccc(C(F)(F)F)nc2)C1)S(=O)(=O)c1cccc(C(F)(F)F)c1 [Compound 668] | 2.95 |
| CC(C)(C[C@H]1C[C@@H](NC(=O)c2ccc(C(F)(F)F)cc2)C1)S(=O)(=O)c1cccc(C(F)(F)F)c1 [Compound 732] | 3.81 |

(I) CC(C)(C1CC(CNC(=O)c2ccc(OCC(F)(F)F)nc2)C1)S(=O)(=O)c1cccc(C(F)(F)F)c1 (centres unmarked) [Compound 619]
(II) O=C(NC[C@H]1C[C@H](S(=O)(=O)c2cccc(C(F)(F)F)c2)C1)c1ccc(C(F)(F)F)cc1 [Compound 572]
(III) CC(C)([C@H]1C[C@H](Nc2ccnc(C(F)(F)F)n2)C1)S(=O)(=O)c1cccc(OC(F)(F)F)c1 [Compound 647]
Q: // smallest IC50 at index 0, largest at the end Respond with the label ranking, as requested.
Ans: III, I, II

====

- TARGET_ENTITY: T-type calcium channel (Homo sapiens, UniProt O95180)
- Sequence (O95180 whole entry): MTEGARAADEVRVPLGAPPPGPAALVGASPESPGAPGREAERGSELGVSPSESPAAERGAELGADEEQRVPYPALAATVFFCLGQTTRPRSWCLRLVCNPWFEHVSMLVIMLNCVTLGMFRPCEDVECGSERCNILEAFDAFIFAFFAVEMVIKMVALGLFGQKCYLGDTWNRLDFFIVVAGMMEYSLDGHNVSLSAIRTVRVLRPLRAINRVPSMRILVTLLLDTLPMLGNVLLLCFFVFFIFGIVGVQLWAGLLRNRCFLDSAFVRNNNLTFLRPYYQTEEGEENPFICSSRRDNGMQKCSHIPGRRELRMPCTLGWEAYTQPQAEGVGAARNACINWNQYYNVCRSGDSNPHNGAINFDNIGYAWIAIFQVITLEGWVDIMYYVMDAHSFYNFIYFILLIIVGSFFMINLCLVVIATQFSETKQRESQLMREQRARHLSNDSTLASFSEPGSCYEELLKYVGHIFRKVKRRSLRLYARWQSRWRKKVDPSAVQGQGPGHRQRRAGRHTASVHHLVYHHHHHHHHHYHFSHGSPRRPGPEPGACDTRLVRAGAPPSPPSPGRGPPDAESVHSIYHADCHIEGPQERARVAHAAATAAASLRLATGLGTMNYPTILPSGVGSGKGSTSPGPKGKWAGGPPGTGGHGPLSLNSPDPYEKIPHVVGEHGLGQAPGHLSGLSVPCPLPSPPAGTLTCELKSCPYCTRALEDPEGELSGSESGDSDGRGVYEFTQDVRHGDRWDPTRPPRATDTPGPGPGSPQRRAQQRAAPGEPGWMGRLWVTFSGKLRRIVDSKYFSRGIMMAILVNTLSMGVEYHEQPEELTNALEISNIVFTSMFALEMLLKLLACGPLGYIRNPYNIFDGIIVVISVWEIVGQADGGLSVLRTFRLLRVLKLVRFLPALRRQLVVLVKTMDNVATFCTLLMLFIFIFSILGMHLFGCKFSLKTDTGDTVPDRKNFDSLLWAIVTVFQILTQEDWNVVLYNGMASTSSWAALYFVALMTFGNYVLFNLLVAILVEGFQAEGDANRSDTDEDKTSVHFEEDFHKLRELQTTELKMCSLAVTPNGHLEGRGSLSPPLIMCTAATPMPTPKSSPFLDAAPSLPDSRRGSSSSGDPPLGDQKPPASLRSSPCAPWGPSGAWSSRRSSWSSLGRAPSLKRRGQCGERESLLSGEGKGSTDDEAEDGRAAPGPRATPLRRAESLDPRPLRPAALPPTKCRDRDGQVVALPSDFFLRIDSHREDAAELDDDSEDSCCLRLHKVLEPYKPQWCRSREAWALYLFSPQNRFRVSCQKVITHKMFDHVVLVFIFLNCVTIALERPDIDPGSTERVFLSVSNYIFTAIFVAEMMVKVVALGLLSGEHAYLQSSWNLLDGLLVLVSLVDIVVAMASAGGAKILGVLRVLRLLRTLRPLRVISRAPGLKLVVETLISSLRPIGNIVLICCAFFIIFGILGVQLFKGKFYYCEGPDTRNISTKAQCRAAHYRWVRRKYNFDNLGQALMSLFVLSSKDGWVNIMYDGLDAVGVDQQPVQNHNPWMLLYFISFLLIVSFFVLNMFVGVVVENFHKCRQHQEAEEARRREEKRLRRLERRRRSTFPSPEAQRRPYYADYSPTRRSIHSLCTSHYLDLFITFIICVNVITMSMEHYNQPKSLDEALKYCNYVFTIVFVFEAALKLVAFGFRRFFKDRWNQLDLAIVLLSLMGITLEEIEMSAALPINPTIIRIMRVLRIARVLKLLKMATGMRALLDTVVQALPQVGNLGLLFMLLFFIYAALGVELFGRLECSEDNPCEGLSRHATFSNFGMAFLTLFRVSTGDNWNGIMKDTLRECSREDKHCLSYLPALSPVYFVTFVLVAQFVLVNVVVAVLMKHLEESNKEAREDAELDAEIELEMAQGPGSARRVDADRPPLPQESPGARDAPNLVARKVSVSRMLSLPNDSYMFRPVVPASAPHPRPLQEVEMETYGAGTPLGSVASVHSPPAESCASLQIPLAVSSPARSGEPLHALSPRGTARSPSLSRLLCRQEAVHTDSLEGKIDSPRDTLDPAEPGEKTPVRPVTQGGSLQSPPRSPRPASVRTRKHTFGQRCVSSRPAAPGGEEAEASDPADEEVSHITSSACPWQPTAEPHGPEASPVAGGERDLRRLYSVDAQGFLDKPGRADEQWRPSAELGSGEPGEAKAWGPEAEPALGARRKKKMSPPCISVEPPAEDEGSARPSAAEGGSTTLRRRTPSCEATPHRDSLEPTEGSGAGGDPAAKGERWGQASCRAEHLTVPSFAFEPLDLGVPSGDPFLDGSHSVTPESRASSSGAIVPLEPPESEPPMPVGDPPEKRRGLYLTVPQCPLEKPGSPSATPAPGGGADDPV
- EXPERIMENT_NOTES: T-type channel blocking, FLIPR data (Table 6)
- Type: cell-based
- CONDITION: CAv3.2, inactivated state, read-out: CAv3.2 IC50 Inact.
PROPERTY_LABEL: IC50 (µM)

| MOLECULE | VALUE_UNITS | IC50 |
| --- | --- | --- |
| CC(C)(C[C@H]1C[C@H](NC(=O)c2ccc(Cl)cc2S(C)(=O)=O)C1)S(=O)(=O)c1cccc(C(F)(F)F)c1 [Compound 718] | µM | 3.67 |
| O=C(NC[C@H]1C[C@H](S(=O)(=O)c2cc(F)cc(C(F)(F)F)c2)C1)c1cnc(C(F)(F)F)nc1 [Compound 705] | µM | 10 |
| CC(C)([C@H]1C[C@H](C(=O)Nc2ccc(C(F)(F)F)cn2)C1)S(=O)(=O)c1cccc(C(F)(F)F)c1 [Compound 766] | µM | 2.38 |
| CC(C)([C@H]1C[C@@H](Nc2ccnc(C(F)(F)F)n2)C1)S(=O)(=O)c1cc(F)cc(C(F)(F)F)c1 [Compound 648] | µM | 4.1 |

(A) CC(C)S(=O)(=O)c1cc(C(F)(F)F)cnc1C(=O)NC[C@H]1C[C@H](S(=O)(=O)c2cccc(Cl)c2)C1 [Compound 770]
(B) CC(C)([C@H]1C[C@H](NS(=O)(=O)c2ccc(Cl)c(F)c2)C1)S(=O)(=O)c1cc(F)cc(C(F)(F)F)c1 [Compound 607]
(C) CC(C)([C@H]1C[C@H](NS(=O)(=O)c2ccc(OC(F)(F)F)cc2)C1)S(=O)(=O)c1cccc(C(F)(F)F)c1 [Compound 669]
(D) CC(C)(C[C@H]1C[C@@H](NC(=O)c2ccc(C(F)(F)F)cc2)C1)S(=O)(=O)c1cccc(C(F)(F)F)c1 [Compound 732]
Q: // smallest IC50 at index 0, largest at the end Respond with the label ranking, as requested.
Ans: D, C, B, A
(D: 0.76 µM, C: 2.55 µM, B: 3.73 µM, A: 10 µM)

(P) NC1(CC(=O)NC[C@H]2C[C@H](S(=O)(=O)c3cc(F)cc(C(F)(F)F)c3)C2)CCCCC1 [Compound 708]
(Q) O=C(NC[C@H]1C[C@H](S(=O)(=O)c2cccc(OC(F)(F)F)c2)C1)c1ccc(Cl)cn1 [Compound 693]
(R) CC(C)(C[C@H]1C[C@H](NC(=O)c2cnc(C(F)(F)F)nc2)C1)S(=O)(=O)c1cccc(C(F)(F)F)c1 [Compound 721]
Q: Sort by IC50, descending. Respond with the label ranking, as requested.
Ans: P, R, Q
(P: 10 µM, R: 4.32 µM, Q: 2.77 µM)
